// provenance: patent US9187471B2

# test-system: human recombinant serotonin (5-Hydroxytryptamine) 5-HT2C receptor (Homo sapiens, UniProt P28335)
# Construct: expressed in transfected cells; host or cells: CHO-K1
# Sequence (P28335 33-458): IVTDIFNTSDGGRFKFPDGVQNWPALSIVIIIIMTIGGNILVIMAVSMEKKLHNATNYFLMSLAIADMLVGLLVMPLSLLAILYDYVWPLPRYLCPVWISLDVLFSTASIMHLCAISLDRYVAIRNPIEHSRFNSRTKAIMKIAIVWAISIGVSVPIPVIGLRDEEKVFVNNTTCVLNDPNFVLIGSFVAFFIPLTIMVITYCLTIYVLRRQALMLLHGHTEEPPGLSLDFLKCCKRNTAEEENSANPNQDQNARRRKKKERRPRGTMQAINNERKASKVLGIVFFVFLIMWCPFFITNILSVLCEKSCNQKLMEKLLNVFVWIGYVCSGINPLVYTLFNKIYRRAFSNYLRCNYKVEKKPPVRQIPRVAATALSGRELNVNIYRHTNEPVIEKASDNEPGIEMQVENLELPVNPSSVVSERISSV
# assay-notes: Serotonin 5-HT2C radioligand binding ([3H]Mesulergine)
# condition-info: compound at 0.1 μM; read-out: Inhibition of ligand binding, Serotonin 5-HT2C (percent inhibition of specific binding)
Below, each entry is listed alongside its reported inhibition at 0.1 µM.
# output: bare number, implied unit %

Query :: Fill blank: measured inhibition at 0.1 µM of the compound `Cc1ccc2c(c1)c1c(n2-c2ccccc2-c2ccc(C)nc2)CCN(C)C1` is ____.
Result :: 46

Query :: Fill blank: measured inhibition at 0.1 µM of the compound `CN1CCc2c(c3cc(Cl)ccc3n2-c2ccsc2)C1` is ____.
Result :: 98

Query :: Fill blank: measured inhibition at 0.1 µM of the compound `Cc1ccc2c(c1)c1c(n2-c2ccc(-c3cncc4ccccc34)cn2)CCN(C)C1` is ____.
Result :: 88

Query :: Fill blank: measured inhibition at 0.1 µM of the compound `Cc1ccc2c(c1)c1c(n2-c2cscc2-c2ccnn2C)CCN(C)C1` is ____.
Result :: 64

Query :: Fill blank: measured inhibition at 0.1 µM of the compound `Cc1ccc2c(c1)c1c(n2-c2cscc2-c2ccc(C)s2)CCN(C)C1` is ____.
Result :: 92

Next:
Query :: Fill blank: measured inhibition at 0.1 µM of the compound `COc1ccc(-c2cscc2-n2c3c(c4cc(C)ccc42)CN(C)CC3)cc1` is ____.
Result :: 81

Query :: Fill blank: measured inhibition at 0.1 µM of the compound `Cc1ccc2c(c1)c1c(n2-c2ccc(-c3ccncc3)cn2)CCN(C)C1` is ____.
Result :: 77

Query :: Fill blank: measured inhibition at 0.1 µM of the compound `CN1CCc2c(c3cc(Cl)ccc3n2-c2cscc2-c2cccnc2)C1` is ____.
Result :: 72

Query :: Fill blank: measured inhibition at 0.1 µM of the compound `Cc1ccc2c(c1)c1c(n2-c2cscc2-c2ccc(O)nc2)CCN(C)C1` is ____.
Result :: 19

Query :: Fill blank: measured inhibition at 0.1 µM of the compound `Cc1ccc2c(c1)c1c(n2-c2cccc(-c3cc4ccccc4s3)c2)CCN(C)C1` is ____.
Result :: 55

Query :: Fill blank: measured inhibition at 0.1 µM of the compound `Cc1ccc2c(c1)c1c(n2-c2cccc(-c3c(C)noc3C)c2)CCN(C)C1` is ____.
Result :: 57

Query :: Fill blank: measured inhibition at 0.1 µM of the compound `Cc1ccc2c(c1)c1c(n2-c2ccc(-c3cnc(N(C)C)nc3)cn2)CCN(C)C1` is ____.
Result :: 86
